tested on: Aspergillus flavus; experiment: Antifungal activity against Aspergillus flavus ATCC 11495 at 10 mg/disc after 48 hrs by disc-diffusion method; assay type: functional
The source made the active and inactive calls. The rule behind the calls is not given here.
endpoint.label: diameter of the inhibition zone (DIZ)

Look over these answered cases.
- smiles.representation: "Cc1nnc2c(C#N)c(-c3ccc(Br)cc3)[nH]c(=S)n12"
  target.system: "Aspergillus flavus"
  diameter of the inhibition zone (DIZ): "inactive"
- smiles.representation: "Cc1cc(C)n(-c2nc(=S)[nH]c(-c3ccc(Br)cc3)c2C#N)n1"
  target.system: "Aspergillus flavus"
  diameter of the inhibition zone (DIZ): "inactive"
- smiles.representation: "N#Cc1c(N/N=C/c2ccc(F)cc2)nc(=S)[nH]c1-c1ccc(F)cc1"
  target.system: "Aspergillus flavus"
  diameter of the inhibition zone (DIZ): "14 mm"
- smiles.representation: "COc1cc(-c2[nH]c(=S)nc(N/N=C/c3ccc(F)cc3)c2C#N)cc(OC)c1OC"
  target.system: "Aspergillus flavus"
  diameter of the inhibition zone (DIZ): "15 mm"

# diameter of the inhibition zone (DIZ) (compound: `COc1cc(-c2[nH]c(=S)n3nnnc3c2C#N)cc(OC)c1OC` ) is inactive

---

system: Candida albicans; assay: Antifungal activity against Candida albicans ATCC 26555 at 10 mg/disc after 48 hrs by disc-diffusion method; format: functional
endpoint.label: diameter of the inhibition zone (DIZ) (mm)
Note: unit mm is implicit; provide only the numeric part.

Look over these answered cases.
- smiles.representation: "COc1ccc(/C=N/Nc2nc(=S)[nH]c(-c3ccc(Br)cc3)c2C#N)cc1"
  quantity.unit: "mm"
  diameter of the inhibition zone (DIZ): 16
- smiles.representation: "N#Cc1c(-c2ccc(Br)cc2)[nH]c(=S)n2c(=S)[nH]nc12"
  quantity.unit: "mm"
  diameter of the inhibition zone (DIZ): 12

Turning to the following molecule.
# diameter of the inhibition zone (DIZ) (molecule: `COc1cc(-c2[nH]c(=S)n3nc(C)nc3c2C#N)cc(OC)c1OC` ) is 8

---

system: Candida albicans; assay: Antifungal activity against Candida albicans ATCC 26555 at 10 mg/disc after 48 hrs by disc-diffusion method; format: functional
Active and inactive are the calls of the source. The calls are words filed in the database; no cut-off is given here.
endpoint.label: diameter of the inhibition zone (DIZ)

Look over these answered cases.
- smiles.representation: "COc1cc(-c2[nH]c(=S)n3c(=O)c(=O)[nH]nc3c2C#N)cc(OC)c1OC"
  diameter of the inhibition zone (DIZ): "inactive"
- smiles.representation: "Cc1cc(C)n(-c2nc(=S)[nH]c(-c3ccc(F)cc3)c2C#N)n1"
  diameter of the inhibition zone (DIZ): "inactive"
- smiles.representation: "N#Cc1c(-c2ccc(F)cc2)[nH]c(=S)n2c(=O)c(=O)[nH]nc12"
  diameter of the inhibition zone (DIZ): "inactive"
- smiles.representation: "COc1ccc(/C=N/Nc2nc(=S)[nH]c(-c3cc(OC)c(OC)c(OC)c3)c2C#N)cc1"
  diameter of the inhibition zone (DIZ): "15 mm"
- smiles.representation: "N#Cc1c(-c2ccc(F)cc2)[nH]c(=S)n2c(=O)[nH]nc12"
  diameter of the inhibition zone (DIZ): "inactive"

# diameter of the inhibition zone (DIZ) (compound: `N#Cc1c(-c2ccc(Br)cc2)[nH]c(=S)n2c(=O)[nH]nc12` ) is inactive

# diameter of the inhibition zone (DIZ) (compound: `COc1cc(-c2[nH]c(=S)nc(NN)c2C#N)cc(OC)c1OC` ) is inactive

# diameter of the inhibition zone (DIZ) (compound: `N#Cc1c(-c2ccc(Br)cc2)[nH]c(=S)n2c(=O)c(=O)[nH]nc12` ) is inactive

# diameter of the inhibition zone (DIZ) (compound: `COc1cc(-c2[nH]c(=S)nc(-n3nc(C)cc3C)c2C#N)cc(OC)c1OC` ) is inactive

# diameter of the inhibition zone (DIZ) (compound: `COc1cc(-c2[nH]c(=S)n3c(=O)[nH]nc3c2C#N)cc(OC)c1OC` ) is inactive

---

Listing of recorded diameter of the inhibition zone (DIZ) by entry.
tested on: Escherichia coli; assay: Antibacterial activity against Escherichia coli ATCC 11775 at 10 mg/disc after 48 hrs by disc-diffusion method; assay type: functional, DSM 30083 = JCM 1649
Note: unit mm is implicit; provide only the numeric part.

- smiles.representation: "N#Cc1c(-c2ccc(Br)cc2)[nH]c(=S)n2cnnc12"
  diameter of the inhibition zone (DIZ) [mm]: 12

# diameter of the inhibition zone (DIZ) (compound: `COc1cc(-c2[nH]c(=S)n3nc(C)nc3c2C#N)cc(OC)c1OC` ) is 7

# diameter of the inhibition zone (DIZ) (compound: `N#Cc1c(-c2ccc(F)cc2)[nH]c(=S)n2cnnc12` ) is 14

# diameter of the inhibition zone (DIZ) (compound: `N#Cc1c(-c2ccc(F)cc2)[nH]c(=S)n2c(=S)[nH]nc12` ) is 11

# diameter of the inhibition zone (DIZ) (compound: `N#Cc1c(N/N=C/c2ccccc2)nc(=S)[nH]c1-c1ccc(F)cc1` ) is 19

# diameter of the inhibition zone (DIZ) (compound: `Cc1cc(C)n(-c2nc(=S)[nH]c(-c3ccc(Br)cc3)c2C#N)n1` ) is 11

---

system: Staphylococcus aureus; experiment: Antibacterial activity against Staphylococcus aureus ATCC 12600 at 10 mg/disc after 48 hrs by disc-diffusion method; assay type: functional
Calls of active or inactive are those of the source. The rule behind the calls is not given here.
endpoint.label: diameter of the inhibition zone (DIZ)

Look over these answered cases.
- smiles.representation: "N#Cc1c(-c2ccc(Br)cc2)[nH]c(=S)n2cnnc12"
  diameter of the inhibition zone (DIZ): "21 mm"
- smiles.representation: "COc1cc(-c2[nH]c(=S)nc(NN)c2C#N)cc(OC)c1OC"
  diameter of the inhibition zone (DIZ): "11 mm"
- smiles.representation: "N#Cc1c(-c2ccc(Br)cc2)[nH]c(=S)n2c(=O)c(=O)[nH]nc12"
  diameter of the inhibition zone (DIZ): "13 mm"
- smiles.representation: "COc1ccc(/C=N/Nc2nc(=S)[nH]c(-c3ccc(Br)cc3)c2C#N)cc1"
  diameter of the inhibition zone (DIZ): "18 mm"
- smiles.representation: "COc1cc(-c2[nH]c(=S)nc(-n3nc(C)cc3C)c2C#N)cc(OC)c1OC"
  diameter of the inhibition zone (DIZ): "11 mm"

Bench note, Staphylococcus aureus: entry `N#Cc1c(-c2ccc(F)cc2)[nH]c(=S)n2nnnc12` , its diameter of the inhibition zone (DIZ) = 15 mm

Bench note, Staphylococcus aureus: entry `N#Cc1c(-c2ccc(F)cc2)[nH]c(=S)n2c(=O)[nH]nc12` , its diameter of the inhibition zone (DIZ) = 12 mm

Bench note, Staphylococcus aureus: entry `Cc1cc(C)n(-c2nc(=S)[nH]c(-c3ccc(Br)cc3)c2C#N)n1` , its diameter of the inhibition zone (DIZ) = 12 mm

Bench note, Staphylococcus aureus: entry `N#Cc1c(-c2ccc(F)cc2)[nH]c(=S)n2ncnc12` , its diameter of the inhibition zone (DIZ) = 7 mm

Bench note, Staphylococcus aureus: entry `N#Cc1c(-c2ccc(F)cc2)[nH]c(=S)n2c(=S)[nH]nc12` , its diameter of the inhibition zone (DIZ) = inactive

Bench note, Staphylococcus aureus: entry `N#Cc1c(-c2ccc(Br)cc2)[nH]c(=S)n2c(=O)[nH]nc12` , its diameter of the inhibition zone (DIZ) = 11 mm

---

tested on: Aspergillus flavus; experiment: Antifungal activity against Aspergillus flavus ATCC 11495 at 10 mg/disc after 48 hrs by disc-diffusion method; assay type: functional
Active and inactive are the calls of the source. The calls are words filed in the database; no cut-off is given here.
endpoint.label: diameter of the inhibition zone (DIZ)

Look over these answered cases.
- smiles.representation: "Cc1nnc2c(C#N)c(-c3ccc(F)cc3)[nH]c(=S)n12"
  diameter of the inhibition zone (DIZ): "inactive"
- smiles.representation: "COc1cc(-c2[nH]c(=S)n3c(C)nnc3c2C#N)cc(OC)c1OC"
  diameter of the inhibition zone (DIZ): "inactive"
- smiles.representation: "N#Cc1c(NN)nc(=S)[nH]c1-c1ccc(Br)cc1"
  diameter of the inhibition zone (DIZ): "inactive"
- smiles.representation: "N#Cc1c(-c2ccc(F)cc2)[nH]c(=S)n2c(=S)[nH]nc12"
  diameter of the inhibition zone (DIZ): "inactive"
- smiles.representation: "COc1cc(-c2[nH]c(=S)n3ncnc3c2C#N)cc(OC)c1OC"
  diameter of the inhibition zone (DIZ): "7 mm"

# diameter of the inhibition zone (DIZ) (molecule: `COc1cc(-c2[nH]c(=S)n3c(=O)c(=O)[nH]nc3c2C#N)cc(OC)c1OC` ) is 17 mm

---

tested on: Radical scavenging activity; experiment: Antioxidant activity assessed as DPPH free radical scavenging activity after 20 mins by UV-visible spectrophotometric analysis; assay type: functional
endpoint.label: IC50

Look over these answered cases.
- smiles.representation: "N#Cc1c(NN)nc(=S)[nH]c1-c1ccc(F)cc1"
  endpoint.label: "IC50"
  observed.measurement: "15.24 µg/mL"
- smiles.representation: "Cc1nnc2c(C#N)c(-c3ccc(F)cc3)[nH]c(=S)n12"
  endpoint.label: "IC50"
  observed.measurement: "72.03 µg/mL"
- smiles.representation: "N#Cc1c(N/N=C/c2ccccc2)nc(=S)[nH]c1-c1ccc(F)cc1"
  endpoint.label: "IC50"
  observed.measurement: "13.8 µg/mL"
- smiles.representation: "COc1ccc(/C=N/Nc2nc(=S)[nH]c(-c3ccc(F)cc3)c2C#N)cc1"
  endpoint.label: "IC50"
  observed.measurement: "12.68 µg/mL"
- smiles.representation: "COc1cc(-c2[nH]c(=S)n3c(=O)c(=O)[nH]nc3c2C#N)cc(OC)c1OC"
  endpoint.label: "IC50"
  observed.measurement: "8.55 µg/mL"

# IC50 (molecule: `COc1cc(-c2[nH]c(=S)n3c(C)nnc3c2C#N)cc(OC)c1OC` ) is 31.15 µg/mL

# IC50 (molecule: `N#Cc1c(-c2ccc(F)cc2)[nH]c(=S)n2c(=O)[nH]nc12` ) is 19.62 µg/mL

# IC50 (molecule: `COc1cc(-c2[nH]c(=S)n3c(=O)[nH]nc3c2C#N)cc(OC)c1OC` ) is 9.34 µg/mL

# IC50 (molecule: `N#Cc1c(-c2ccc(F)cc2)[nH]c(=S)n2c(=O)c(=O)[nH]nc12` ) is 14.72 µg/mL

# IC50 (molecule: `O=C1O[C@H]([C@@H](O)CO)C(O)=C1O` ) is 10 µg/mL

# IC50 (molecule: `COc1cc(-c2[nH]c(=S)nc(NN)c2C#N)cc(OC)c1OC` ) is 6.21 µg/mL
